Target: T1, IL10Rα and IL2Rγ on human primary cells (CD8 T cells, CD4 T cells, monocytes) (human) (UniProt Q13651)
T1 sequence (looked up) 1: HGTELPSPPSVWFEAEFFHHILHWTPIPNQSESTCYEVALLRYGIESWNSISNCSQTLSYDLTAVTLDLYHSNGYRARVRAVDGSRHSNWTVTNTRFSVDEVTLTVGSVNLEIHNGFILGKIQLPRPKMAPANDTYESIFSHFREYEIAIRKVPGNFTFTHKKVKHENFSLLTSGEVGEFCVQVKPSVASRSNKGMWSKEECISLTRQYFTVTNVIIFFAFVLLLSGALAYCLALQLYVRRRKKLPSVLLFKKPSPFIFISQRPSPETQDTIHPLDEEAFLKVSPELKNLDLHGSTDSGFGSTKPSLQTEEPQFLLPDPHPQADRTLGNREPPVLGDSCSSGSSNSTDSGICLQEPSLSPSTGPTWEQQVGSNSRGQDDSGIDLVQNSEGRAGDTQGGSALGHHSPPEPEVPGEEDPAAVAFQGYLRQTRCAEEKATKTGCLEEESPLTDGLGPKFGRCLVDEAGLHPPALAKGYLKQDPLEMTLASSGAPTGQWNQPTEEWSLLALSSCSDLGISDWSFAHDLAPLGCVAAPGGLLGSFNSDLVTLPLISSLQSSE
T1 sequence (looked up) 2: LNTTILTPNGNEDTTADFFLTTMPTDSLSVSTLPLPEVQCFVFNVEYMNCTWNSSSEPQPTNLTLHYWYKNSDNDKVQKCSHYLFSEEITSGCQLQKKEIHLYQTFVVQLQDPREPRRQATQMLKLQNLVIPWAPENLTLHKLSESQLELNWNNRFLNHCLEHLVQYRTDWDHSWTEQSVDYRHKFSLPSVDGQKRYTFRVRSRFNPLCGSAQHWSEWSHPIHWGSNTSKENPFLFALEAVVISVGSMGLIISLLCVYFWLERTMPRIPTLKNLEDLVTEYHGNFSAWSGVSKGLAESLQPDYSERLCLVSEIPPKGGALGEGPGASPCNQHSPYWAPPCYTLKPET
Experiment: cell-based or functional assay
Overview of recorded pSTAT3 (MFI) in CD4 T cells at 10 µM for various binders
Expressed in MFI, but write only the number.

These recorded examples may help you get a feel for the data.
* hIL10Ra_VHH14-hIL2Rg_VHH19, linker GGGSGGGS, tag his (bispecific antibody, not shown: small tags and cut ends) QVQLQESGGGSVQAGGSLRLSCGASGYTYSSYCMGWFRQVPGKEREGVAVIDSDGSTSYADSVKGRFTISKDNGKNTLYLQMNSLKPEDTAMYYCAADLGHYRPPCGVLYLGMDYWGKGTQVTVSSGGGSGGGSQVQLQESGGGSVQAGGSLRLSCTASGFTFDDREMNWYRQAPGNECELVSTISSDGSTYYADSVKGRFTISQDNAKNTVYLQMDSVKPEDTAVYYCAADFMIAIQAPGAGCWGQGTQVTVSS | 13200
* hIL10Ra_VHH14-hIL2Rg_VHH19, linker GGGS, tag Fc (Fc fusion, not shown: a dimerising Fc or GST) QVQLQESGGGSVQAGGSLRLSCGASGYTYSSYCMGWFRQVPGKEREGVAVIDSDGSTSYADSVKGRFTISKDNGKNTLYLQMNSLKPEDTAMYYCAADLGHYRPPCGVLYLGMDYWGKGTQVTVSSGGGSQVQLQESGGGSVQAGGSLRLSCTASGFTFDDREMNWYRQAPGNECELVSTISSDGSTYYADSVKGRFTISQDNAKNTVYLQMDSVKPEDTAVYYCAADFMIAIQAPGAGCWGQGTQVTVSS | 14800

For the next question, use this binder.
**Q:** Would you mind telling me what pSTAT3 (MFI) in CD4 T cells at 10 µM value was observed for hIL10Ra_VHH14-hIL2Rg_VHH19, linker GGSGGS, tag his (bispecific antibody, not shown: small tags and cut ends) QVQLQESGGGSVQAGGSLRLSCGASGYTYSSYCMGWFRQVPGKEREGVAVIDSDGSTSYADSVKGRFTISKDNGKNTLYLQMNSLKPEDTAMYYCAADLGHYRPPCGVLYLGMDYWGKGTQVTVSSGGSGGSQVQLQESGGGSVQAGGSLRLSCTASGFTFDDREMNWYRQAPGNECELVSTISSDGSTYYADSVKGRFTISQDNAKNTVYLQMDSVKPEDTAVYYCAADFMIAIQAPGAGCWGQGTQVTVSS ?
**A:** 11800
